Tested on: SN12C
Run description: NCI tumour cell line growth inhibition, 48 h
Calls of active or inactive are those of the source. Cut-off read from the data, not from the text of the source: active = GI50 up to about 1.1 µM and inactive = higher.

Compound	GI50
CC(C)/C(Cl)=N\OC(=O)Nc1ccccc1F	10 µM (inactive)
N#CC1(Cc2ccccc2[N+](=O)[O-])c2ccccc2C2C(N1C(=O)c1ccccc1)C2(Cl)Cl (configuration not stated)	> 100 µM (inactive)
O=C1c2ccccc2C(=O)c2[nH]c(Cc3ccc(F)cc3)nc21	22 µM (inactive)
O=C(CC(O)(C(F)(F)F)C(F)(F)Cl)CC(O)(C(F)(F)F)C(F)(F)Cl (configuration not stated)	1.5 µM (inactive)
N#CC1(C#N)C2CCCCC23OC(=N)C1(C#N)C(c1ccccc1)O3 (configuration not stated)	13.1 µM (inactive)
CC1(CO)C(O)CCC2(C)C1C(O)CC1CC3CC12CCC3(O)CO (configuration not stated)	> 225 µM (inactive)
C(#C[C@@]12CCC[C@@H]1N(Cc1ccccc1)CO2)c1ccc2c(c1)OCO2	> 100 µM (inactive)
COc1ccc(C(O)c2ccccn2)cc1 (configuration not stated)	> 100 µM (inactive)
O=S(=O)(O)c1cc(S(=O)(=O)O)c2c(/N=N/c3ccc(S(=O)(=O)O)c4ccccc34)c(O)ccc2c1	> 100 µM (inactive)
COc1ccc2c(c1)c[n+](C)c1c3cc(OC)c(OC)cc3ccc21	1.73 µM (inactive)
COC(=O)C(CCSC)NC(=O)Cc1ccc(C(=O)c2ccccc2)cc1 (configuration not stated)	50.1 µM (inactive)
O=C1C=C2SC3C[C@@]24CC1(O)[N+]1=c2c4c(c(O)c4c2=C(C=N4)CC1)N3	1.22 µM (inactive)
COC(=O)C(=O)C(C(=O)C(=O)Nc1cc(C)ccc1C)c1nc2ccc(C(=O)c3ccccc3)cc2nc1O (configuration not stated)	> 100 µM (inactive)
Fc1nc(-c2c3ccccc3c3sc4ccccc4n23)nc(N2CCOCCOCCOCCOCC2)n1	> 100 µM (inactive)
CN(CN1C(=O)C2Cc3ccccc3CN2C1=O)c1ccccn1 (configuration not stated)	> 100 µM (inactive)
O/N=C1/CCCC/C1=C/C=C/c1ccccc1	17.8 µM (inactive)
NCCSS(=O)(=O)CCN	> 100 µM (inactive)
COc1cccc(C2CC(C)(O)Oc3cc4c(cc32)OCO4)c1O (configuration not stated)	28.7 µM (inactive)
O=[N+]([O-])c1ccc(/C(Cl)=C/c2ccc(/C=C(\Cl)c3ccc([N+](=O)[O-])cc3[N+](=O)[O-])cc2)c([N+](=O)[O-])c1	> 100 µM (inactive)
[O-][n+]1c2ccccc2[n+]([O-])c2ccccc21	> 100 µM (inactive)
Cc1ccc(S(=O)(=O)N2CC2CCCCC=O)cc1 (configuration not stated)	> 100 µM (inactive)
C/C(=N\NC(N)=S)c1cc(C)c(C)cc1C	> 100 µM (inactive)
COc1cc(C2C=C(c3ccccc3)Oc3cc4c(cc32)OCO4)cc(OC)c1OC (configuration not stated)	0.675 µM (active)
N#CC(C(=O)/C(=N/NC(=O)c1ccccc1O)C(C#N)c1ccccc1)c1ccccc1 (configuration not stated)	> 100 µM (inactive)
COC(=O)C1=C(OC(=O)/C(=C/c2ccc(Cl)cc2)c2ccc(Cl)cc2)C(C(=O)OC)[C@@]2(O)[C@@H](C(=O)OC)[C@H](C)C[C@@H]1[C@@H]2C(=O)OC (some centres not stated)	> 100 µM (inactive)
C[C@@H](NC(C#N)c1ccco1)c1ccccc1 (some centres not stated)	> 100 µM (inactive)
Nc1nc(N)c2nnn(C[C@H]3CC[C@@H](CO)C3)c2n1	38.5 µM (inactive)
CSC(=Nc1nnc(-c2ccc([N+](=O)[O-])cc2)s1)SC	52.2 µM (inactive)
O=C1C(c2ccccc2)=C(O)c2cccc3cccc1c23	> 100 µM (inactive)
Cc1c(C(=O)Nc2ccccc2)nnn1-c1ccnc2cc(C(F)(F)F)ccc12	53.2 µM (inactive)
Clc1cccc2[nH]ncc12	> 100 µM (inactive)
CN(C)CCNc1ccc(C(=O)NCCCN(C)CCCNC(=O)c2ccc(NCCN(C)C)c3c(=O)c4ccccc4[nH]c23)c2[nH]c3ccccc3c(=O)c12	< 0.01 µM (active)
Cc1ccc(C2=NN=C3C(c4ccccc4)=Nc4ccccc4N3C2)cc1	15.5 µM (inactive)
CN(C)CCNc1ccc2c(=O)n(CCN(C)C)c(=O)n3c4ccc([N+](=O)[O-])cc4c(=O)c1c23	0.197 µM (active)
CC(=O)NC1CONC1=O (configuration not stated)	> 100 µM (inactive)
CCOC(=O)C1(C(=O)OCC)Nc2cccnc2N(C)N1	19.1 µM (inactive)
O=C(Oc1ccccn1)c1cc2cc(CCl)ccc2oc1=O	25.2 µM (inactive)
O=C(Cn1c(C(=O)c2ccccc2)nc2ccccc21)c1ccccc1	> 100 µM (inactive)
CCCCCNC(=O)CCCCCCCCCCCNC(=O)CCCCCCCCCCN1C=CC(=CC=C2C=CC(=O)C=C2)C=C1	39.4 µM (inactive)
CN(C)C(=S)/N=c1\ss/c(=N\C(=S)N(C)C)n1C1CCCCC1	> 100 µM (inactive)
O=C(O)c1cnccc1-c1cc(=O)[nH]n1-c1ccccc1	> 87.7 µM (inactive)
C[N+](C)(C)CC(=O)N/N=C(\C(=O)Nc1ccc(Cl)cc1)C1C(=O)N(c2ccccc2)N=C1N (configuration not stated)	> 100 µM (inactive)

----------
Test system: RPMI-8226
Run description: NCI tumour cell line growth inhibition, 48 h
Activity calls are given as the source filed them. Cut-off read from the data, not from the text of the source: active = GI50 up to about 1.1 µM and inactive = higher.
Outcomes: active, inactive

Molecule	Qualitative label
CC(=O)O[C@@]1(C)[C@@H](C)C(=O)O[C@@H]2CCN3CC=C(COC(=O)[C@]1(C)O)[C@H]23	inactive
Cc1nc(C(N)=S)sc1C(=O)CC(=O)C(=O)Nc1nc2ccccc2[nH]1	inactive
CN(C)CCNC1=CC(=O)c2nc3ccccc3c3ccnc1c23	inactive
C=C1C2CC(OC(C)=O)C3(C)C(c4ccoc4)OC(=O)[C@@H](O)[C@]13OC1C[C@H](OC(C)=O)C(C)(C)[C@H](CC(=O)OC)[C@]12C (stereo not given in full)	inactive
O=C1c2ccccc2C(=O)c2[nH]c(Cc3ccc(F)cc3)nc21	inactive
Cc1cc(OCC(O)CO)ccc1Cl (stereo not given)	inactive
COc1ccc(NC(=O)CC/C(CC(=O)C(C)(C)C)=N\NC(=O)C(=O)NN)cc1	inactive
CCC1([N+](=O)[O-])CN(N=O)C1	inactive
CCCCCCCCCCCC(=O)NCc1ccc(OC(=O)CCCCCCCCCCC)c(OC)c1	inactive
O=C(NC1C(=O)NNC1c1ccccc1Cl)c1ccccc1 (stereo not given)	inactive
CC(=O)C(=NNc1ccc(-n2c(C)nc3ccc(Br)cc3c2=O)cc1)C(C)=O	inactive
C=CC(C)(C)c1c(OC)oc2ccc(OC)c(C)c2c1=O	inactive
O=C1OC(c2ccccc2)=N/C1=C/NC(CS)C(=O)O (stereo not given)	inactive
CN1C(=O)C(C)(C)C2(SC(C)(C)C2(C)C)N(C)C1=S (stereo not given)	inactive
CC1CCCc2c(CC3CC(=O)NC(=O)C3)n[nH]c21 (stereo not given)	inactive
COc1ccc(/C=C(/C(=O)O)c2cc(OC)c(OC)c(OC)c2)cc1	inactive
O=[N+]([O-])c1ccc(/C(Cl)=C/c2ccc(/C=C(\Cl)c3ccc([N+](=O)[O-])cc3[N+](=O)[O-])cc2)c([N+](=O)[O-])c1	inactive
NC(=S)N/N=C1/C(=O)N(c2ccc(Cl)cc2Cl)C(=O)C(=O)C1c1nc2ccccc2s1 (stereo not given)	inactive
CC(CNC(N)=O)NC(N)=O (stereo not given)	inactive
C1CSC2=C(S1)SC1=C(S2)SC(=C2SC3=C(SC4=C(SCCS4)S3)S2)S1	inactive
[N-]=[N+]=C1C(=O)C2CC3CC1CC2C3 (stereo not given)	inactive
COc1ccc(/C(=N\Nc2ccccn2)c2ccccn2)cc1	active
CCCCCCCC(=O)OCC1OC(n2cc(F)c(=O)[nH]c2=O)C(NC(=O)OCc2ccccc2)C(O)C1O (stereo not given)	inactive
COC[C@H]1OC(=O)c2coc3c2[C@@]1(C)C1=C(C3=O)[C@@H]2CCC(=O)[C@@]2(C)C[C@H]1OC(C)=O	inactive
COc1cc2c(cc1OCCCCN1CCN(CCCCOc3cc4c(cc3OC)C(=O)N3CCC[C@H]3C=N4)CC1)N=C[C@@H]1CCCN1C2=O	active
Cc1ccccc1NC(=O)c1ccc([N+](=O)[O-])cc1	inactive
NC(=O)N/N=C/c1ccccc1O	inactive
CCn1c(=O)ccc2ccc(N(CCO)CCO)nc21	inactive
O=c1[nH]c(=O)n(C2CC(O)C(CO)O2)cc1I (stereo not given)	inactive
O=C(CC(=O)Nc1ccccc1)NNC(c1cc(/N=N/c2ccc(Br)cc2)ccc1O)P(O)O (stereo not given)	inactive
CC(C)(C)c1cc(C2c3cc4c(cc3OC(O)(CO)C2C(=O)O)OCO4)cc(C(C)(C)C)c1O.CC(C)(C)c1cc(C2c3cc4c(cc3OC3(O)COC(=O)C23)OCO4)cc(C(C)(C)C)c1O (stereo not given)	inactive
CN(C)/C=C/C(=CC=[N+](C)C)/C=C/N(C)C.[O-][Cl+3]([O-])([O-])[O-]	inactive
Cc1ccc(NC(=O)C(=O)C2C(=O)NC(=O)NC2=O)c(C)c1	inactive
Cc1c/c(=N\c2ccc3c(c2)c(N)cc(C)[n+]3C)nc(N)n1C	inactive
O=c1[nH]cnc2c(COCCO)c[nH]c12	inactive
CC(C)(C)[C@H]1CO[C@]2(c3ccccc3)[C@@H]3C[C@@H]3C(=O)N12	inactive
Cc1nc(N)sc1C(=O)/C=C/c1ccc([N+](=O)[O-])cc1	inactive
O=C(/C=C/c1ccc(Cl)cc1)c1ccc(Cl)c(Cl)c1	inactive
CCOc1cc(NC(C)=O)ccc1C(=O)NN1C(=O)C(Oc2ccccc2)C1c1ccc(O)c(OC)c1 (stereo not given)	inactive
CN(C)C(=S)/N=c1\ss/c(=N\C(=S)N(C)C)n1C1CCCCC1	inactive
